- Target System: Gal(b1-4)GlcNAc(b1-2)Man(a1-3)[Man(a1-6)]Man(b1-4)GlcNAc(b1-4)GlcNAc
- Measurement Protocol: glycan array binding signal (z-score within array); higher = stronger binding
- Setup Conditions: glycan notation: IUPAC condensed, linker removed
About 410 targets per protein were measured; listed, in parts, are those with the strongest signals and a random draw of the rest.
Reported Endpoint: glycan array binding signal (z-score)
Just the number, please.

{"Binder": "XCL (Xerocomus chrysenteron) (protein) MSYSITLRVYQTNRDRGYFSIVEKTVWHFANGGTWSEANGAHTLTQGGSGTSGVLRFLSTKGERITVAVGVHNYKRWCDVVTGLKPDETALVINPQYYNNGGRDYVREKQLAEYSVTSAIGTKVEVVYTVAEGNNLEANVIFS", "Numeric Value": -0.272}
{"Binder": "CFEM-SCL (Saccharomyces cerevisiae), O13547 (protein) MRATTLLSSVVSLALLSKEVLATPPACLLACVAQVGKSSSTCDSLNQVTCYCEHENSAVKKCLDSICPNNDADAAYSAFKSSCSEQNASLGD", "Numeric Value": -0.238}

Next binder, please.
Name the reported glycan array binding signal (z-score) value associated with the binder Gal 8 (Homo sapiens), O00214_1 (protein) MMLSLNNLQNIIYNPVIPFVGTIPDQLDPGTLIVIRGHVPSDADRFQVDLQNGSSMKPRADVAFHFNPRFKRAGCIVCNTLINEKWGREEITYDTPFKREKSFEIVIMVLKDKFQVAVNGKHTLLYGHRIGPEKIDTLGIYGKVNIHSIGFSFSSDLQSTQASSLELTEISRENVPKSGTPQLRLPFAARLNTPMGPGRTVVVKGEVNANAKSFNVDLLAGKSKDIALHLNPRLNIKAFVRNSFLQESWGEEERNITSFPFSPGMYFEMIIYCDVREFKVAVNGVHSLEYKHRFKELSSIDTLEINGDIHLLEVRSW
0.003
